FYI, the data here is from the Human Domainome abundance scans (Beltran et al. 2025).

B1: Segment polarity protein dishevelled homolog DVL-3, residues 2 to 81; numbered along this chain, Q92997 (parent)
chain: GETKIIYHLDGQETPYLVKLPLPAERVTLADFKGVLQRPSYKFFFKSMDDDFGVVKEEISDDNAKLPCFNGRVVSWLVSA

- Variants of: B1
- procedure.details: abundance fitness (aPCA) (normalised: wild type 0, dead -1); higher = more abundant; growth selection in yeast, the domain comes from the species named
- conditions: Homo sapiens
Listing: abundance fitness of selected variants
Answer with a number only.

// below: answered variants
- sequence.variant: "R72K"
  abundance fitness: 0.102
- sequence.variant: "N63G"
  abundance fitness: -0.175
- sequence.variant: "N70P"
  abundance fitness: -0.628

## Task Given the entry R26Q , report its measured abundance fitness.
## Result 0.123

## Task So what's the measured abundance fitness for this one? D31Y
## Result -0.714

## Task Which value of abundance fitness has been reported for F45N in the records?
## Result -0.407

## Task Suppose we examine the variant V55R ; what abundance fitness value has been reported?
## Result 0.225

## Task Field request: abundance fitness | item: A30D
## Result -0.967

## Task Which abundance fitness is reported for this variant? V54W
## Result 0.13

## Task Give its abundance fitness value. Item: S75C
## Result 0.099

## Task # get_value(readout='abundance fitness', item= K19R )
## Result -0.132

## Task What does the data say about its abundance fitness? Entry: V78R
## Result -0.322

## Task Give the measured abundance fitness of V54F .
## Result 0.136
